Tested on: PA-1
Assay: Primary qHTS to identify gynecologic anti-cancer compounds using libraries of approved drugs and bioactive compounds (AID 1345084); note: nearly all actives have a fitted effect of over 55% in size
Conditions: Gynecologic cancer cell panel viability, ATPlite luminescence, 48 h; series mostly up to 57.5 µM
Inconclusive results are not listed. Activity calls are given as the source filed them. Calls come from the whole dose curve; as a rule, active = well fitted cell-killing curve with a large enough effect; inconclusive = small, poorly fitted or top-dose-only effect, or effect the other way; inactive = flat fitted curve, though single readings scatter.
The reply should name one outcome from active, inactive

Below, 3 compounds whose answers are already recorded.
compound=CCc1nc(-c2cccc(C)c2)c(-c2ccnc(NC(=O)c3ccccc3)c2)s1 group_label=inactive
compound="N[C@H]1CN(c2c(F)cc3c(=O)c(C(=O)O)cn(C4C[C@@H]4F)c3c2Cl)CC12CC2 (some centres undefined)" group_label=inactive
compound=CCCCOc1ccc(C(=O)Nc2ccc(F)cc2F)cc1 group_label=inactive

Task: Called result for C[C@H](O)[C@@H]1C(=O)N2C(C(=O)O)=C(S[C@@H]3CN[C@H](CNS(N)(=O)=O)C3)[C@@H](C)[C@@H]12
Result: inactive
